- target: T1, PUF4 RNA-binding domain (Saccharomyces cerevisiae, UniProt P25339 537-888)
- T1 sequence: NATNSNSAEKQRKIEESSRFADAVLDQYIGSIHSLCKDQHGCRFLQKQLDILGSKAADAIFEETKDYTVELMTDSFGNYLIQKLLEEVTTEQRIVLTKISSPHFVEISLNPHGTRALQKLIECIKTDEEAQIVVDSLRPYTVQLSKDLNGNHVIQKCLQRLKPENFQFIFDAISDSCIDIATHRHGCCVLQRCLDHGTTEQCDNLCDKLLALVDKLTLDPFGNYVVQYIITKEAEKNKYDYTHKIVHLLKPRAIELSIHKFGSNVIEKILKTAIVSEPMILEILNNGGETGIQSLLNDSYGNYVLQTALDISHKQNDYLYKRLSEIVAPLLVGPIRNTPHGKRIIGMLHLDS
- test description: Mg; RNA-MaP; 20 mM Na-HEPES pH 7.4, 30 mM KOAc, 0.75 mM MgCl2, 0.1% Tween-20, 5% glycerol, 0.1 mg/mL BSA, 2 mM DTT; 25 C; 0.0125-409.6 nM protein
- condition parameters: tags: N-His6-TEV cleaved; C-SNAP kept, Cy3B-labelled; label: tethered on chip by stalled RNA polymerase
measured quantity: pKd
pKd (log units): -log10 of the concentration in mol/L.

Tell us which pKd value is on record for UCUCUUUGUAUUAAUUCUCUU (ssRNA) [Ic_S1_P4E.1_K4.1_C4.1_H4.1_A4.1_[A6T]_[T7A]_F4.1_[T8A]_[A9T]_T4.1]
7.06

Note down pKd recorded for Ie_S2_P3E.2_K3.1_C3.2_H3.1_A3.1_F3.1_[+8CT]_T3.2 (ssRNA) RNA: UUUGAUUAAUAUGAUAUCGUUCUUUCUCUUGUAUAUACUUAUUCUUUCUCGAUAUCAUAUUAAUCUUU
8.52

Give reported pKd value for Id_i_S4_P3E.5_K3.1_C3.3_[T-3A]_[C-2T]_[T-1C]_H3.1_A3.1_F3.1_T3.2 (ssRNA) RNA: UUUGACAACUGAUCGUUCUUUCUAUCUGUAUAUAUAUUCUUUCUCGAUCAGUUGUCUUU
8.70

Using the record for Ic_S2_P4E.1_K4.1_C4.1_H4.1_A4.1_[T5A]_[A6T]_F4.1_[T8C]_[A9C]_T4.1 (ssRNA) RNA: UUUGAUUAAUAUGAUAUCGUUCUUUCUUGUAAUUCCUUCUUUCUCGAUAUCAUAUUAAUCUUU , state its measured pKd.
6.50

Determine from records and report pKd for Ic_S4_P5E.1_K5.1_C5.1_H5.1_A5.1_[T6C]_[A7C]_F5.1_[T8A]_[T9G]_[A10C]_T5.1 (ssRNA) RNA: UUUGACAACUGAUCGUUCUUUCUUGUAUCCAGCUUCUUUCUCGAUCAGUUGUCUUU
6.00

Retrieve pKd measured for UCUCUUUGUAUGGCUUCUCUU (ssRNA) [Ic_S1_P4E.1_K4.1_C4.1_H4.1_A4.1_[A6G]_[T7G]_F4.1_[T8C]_[A9T]_T4.1] and print it.
5.79

Entry UCUCUUAUUAUAUUAUUACAUCUCUU (ssRNA) [Id_ii_S1_P5E.3_K5.2_C5.2_[C-2A]_H5.2_A5.1_F5.1_T5.2_[T11C]] needs its pKd filled in; supply it.
6.89

Give pKd for Ib_S2_P3E.1_K3.1_C3.1_H3.1_[G2C]_A3.1_F3.1_[A8T]_T3.1 (ssRNA) RNA: UUUGAUUAAUAUGAUAUCGUUCUUUCUUCUAUAUUUUCUUUCUCGAUAUCAUAUUAAUCUUU
5.88

Quote pKd reported for Ic_S4_P5E.1_K5.1_C5.1_H5.1_A5.1_[T5G]_[T6C]_[A7C]_F5.1_[T8C]_T5.1 (ssRNA) RNA: UUUGACAACUGAUCGUUCUUUCUUGUAGCCCUAUUCUUUCUCGAUCAGUUGUCUUU please.
7.71

Item UCUCUUAAUGUAUAUUACUUCUCUU (ssRNA) [Id_ii_S1_P4E.2_K4.1_C4.2_[C-2A]_[T-1A]_H4.1_A4.1_F4.1_T4.2_[G10C]] : provide pKd
8.78

Determine from records and report pKd for Id_ii_S2_P4E.4_K4.3_C4.2_[T-1A]_H4.3_A4.1_F4.1_T4.2_[G10T]_[T11A] (ssRNA) RNA: UUUGAUUAAUAUGAUAUCGUUCUUUCUCAACACUAUUAUAUUCUUUCUCGAUAUCAUAUUAAUCUUU
6.13

Fill in reported pKd for this entry: Ic_S4_P5E.1_K5.1_C5.1_H5.1_A5.1_[T5A]_[T6A]_[A7T]_F5.1_[T9C]_[A10T]_T5.1 (ssRNA) RNA: UUUGACAACUGAUCGUUCUUUCUUGUAAAUUCUUUCUUUCUCGAUCAGUUGUCUUU
7.55
